Entries and their measured Growth controlling degree (%) Velvetleaf follow.
# Test system: velvetleaf
# assay overview: Test Example 2: soil surface treatment, upland pot test
# Type: in vivo, Abutilon theophrasti MEDIC.
# study conditions: active ingredient 500 g/ha, observed 20th to 28th day
Write it as a number; the unit % goes unstated.

- CC(Oc1ccc(F)cc1)C(=O)N(C)C(c1cnccc1C(F)(F)F)C(C)C (mixture of isomers): 50
- CC(C)C(c1cnccc1C(F)(F)F)N(C)C(=O)Cc1ccc(C(F)(F)F)cc1 (stereo not shown): 50
- Cc1ccc(CC(=O)N(C)C(c2cnccc2C(F)(F)F)C(C)C)cc1 (stereo not shown): 80
- Cc1ccc(C=CC(=O)N(C)C(c2cnccc2C(F)(F)F)C(C)C)cc1 (stereo not shown): 30
- CCc1ccc(CC(=O)N(C)C(c2cnccc2C(F)(F)F)C(C)C)cc1 (stereo not shown): 30

Input line: Look up Growth controlling degree (%) Velvetleaf: CC(C)C(c1cnccc1C(F)(F)F)N(C)C(=O)C=Cc1ccc(C(F)(F)F)cc1 (stereo not shown)
Output line: 0

###

Quick list: Growth controlling degree (%) Soybean per entry.
# Test system: soybean
# assay overview: Test Example 1: foliage treatment, upland pot test
# Assay type: in vivo, Glycine max Merr.
# study conditions: crop, active ingredient 500 g/ha, observed 18th to 23rd day, 0 = non-treated, 100 = complete kill

* CC(C)C(c1cnccc1C(F)(F)F)N(C)C(=O)Cc1ccc(C(F)(F)F)c(F)c1 (stereo not shown) | 30%
* CCOC(=O)N(C)C(c1cnccc1C(F)(F)F)c1cccc2ccccc12 (stereo not shown) | 50%
* CC(C)C(c1cnccc1Cl)N(C)C(=O)Cc1ccc(C(F)(F)F)cc1 (stereo not shown) | 60%
* CC(C)C(c1cnccc1C(F)(F)F)N(C)C(=O)Cc1cccc(C(F)(F)F)c1F (stereo not shown) | 50%
* CC(C)C(c1cnccc1C(F)(F)F)N(C)C(=O)Cc1cccs1 (stereo not shown) | 70%
* CC(C)CC(=O)N(C)C(c1cnccc1C(F)(F)F)C(C)C (stereo not shown) | 80%
* CC(C)C(c1cnccc1C(F)(F)F)N(C)C(=O)Cc1ccc(Cl)c(Cl)c1 (stereo not shown) | 60%
* CC(C)C(c1cnccc1C(F)(F)F)N(C)C(=O)Cc1ccccc1[N+](=O)[O-] (stereo not shown) | 40%

Input line: Consider the molecule shown here: CC(C)C(c1cnccc1C(F)(F)F)N(C)C(=O)COc1ccccc1 (stereo not shown) What is its recorded Growth controlling degree (%) Soybean?
Output line: 50%

Input line: Fill in the blank: the reported Growth controlling degree (%) Soybean of CCC(C)C(c1cnccc1C(F)(F)F)N(C)C(=O)Cc1ccccc1 (stereo not shown) is ____.
Output line: 90%

Input line: Requested read-out: Growth controlling degree (%) Soybean. Entry: CON=Cc1ccc(CC(=O)N(C)C(c2cnccc2C(F)(F)F)C(C)C)cc1 (racemic)
Output line: 80%

Input line: For CCCCC(=O)N(C)C(c1cnccc1C(F)(F)F)C(C)C (stereo not shown) , what is its reported Growth controlling degree (%) Soybean?
Output line: 60%

Input line: Look up Growth controlling degree (%) Soybean: CCC(CC)C(c1cnccc1C(F)(F)F)N(C)C(=O)COc1ccccc1 (stereo not shown)
Output line: 80%

###

# Growth controlling degree (%) Soybean values compiled below
# System: soybean
# assay overview: Test Example 1: foliage treatment, upland pot test
# Assay type: in vivo, Glycine max Merr.
# study conditions: crop, active ingredient 500 g/ha, observed 18th to 23rd day, 0 = non-treated, 100 = complete kill
Write it as a number; the unit % goes unstated.

Reference set, count: 2
• CCC(=O)N(C)C(c1cnccc1C(F)(F)F)C(C)C (stereo not drawn) = 80
• CC(C)C(c1cnccc1C(F)(F)F)N(C)S(=O)(=O)c1ccc(F)cc1F (racemic) = 60

Input line: Consider the compound CC(Oc1ccc(F)cc1)C(=O)N(C)C(c1cnccc1C(F)(F)F)C(C)C (mixture of isomers) and give its measured Growth controlling degree (%) Soybean.
Output line: 80

Input line: Given the entry CC(C)C(c1cnccc1C(F)(F)F)N(C)C(=O)CC1CCCCC1 (stereo not drawn) , report its measured Growth controlling degree (%) Soybean.
Output line: 30

Input line: Quick one: Growth controlling degree (%) Soybean for CC(C)C(c1cnccc1C(F)(F)F)N(C)C(=O)Cc1ccc(F)c(C(F)(F)F)c1 (stereo not drawn) ?
Output line: 70

Input line: Please give the measured Growth controlling degree (%) Soybean for this compound: CC(C)C(c1cnccc1C(F)(F)F)N(C)C(=O)CC(C)(C)C (stereo not drawn)
Output line: 40

###

# Test system: corn
# assay overview: Test Example 2: soil surface treatment, upland pot test
# Format: in vivo, Zea mays L.
# study conditions: active ingredient 500 g/ha, observed 20th to 28th day
assay readout: Growth controlling degree (%) Corn
Numbers only; they are read as %.

As a guide, the following entries are already answered.
* CC(C)C(c1cnccc1C(F)(F)F)N(C)C(=O)Cc1ccc(F)c(F)c1 (stereo not drawn) | 10
* CC(Oc1ccc(F)cc1)C(=O)N(C)C(c1cnccc1C(F)(F)F)C(C)C (mixture of isomers) | 50

Field: next molecule
Input line: For the molecule shown here, CC(C)C(c1cnccc1C(F)(F)F)N(C)C(=O)Cc1ccsc1 (stereo not drawn) , give the reported Growth controlling degree (%) Corn.
Output line: 50

###

Parameter: Growth controlling degree (%) Rice. Scope: all listed entries.
# System: rice (var. Nihonbare)
# assay overview: Test Example 3: paddy pot test, transplanted rice
# Assay type: in vivo, Oryza sativa L.
# study conditions: active ingredient 500 g/ha, applied 4th day after transplantation, visually observed 21st day after application, 0 = non-treated, 100 = complete kill
# From the text: Paddy field soil was put into a 1/1,000,000 ha pot, and seed of barnyardgrass and japanese bulrush were sown and slightly covered with soil. Then, the pot was left to stand still in a greenhouse in a state where the depth of flooding water was from 0.5 to 1 cm, and one day or two days later, tubers of japanese ribbon wapato were planted. […]
Field format: number, assumed %, no unit text.

- CC(C)C(c1cnccc1C(F)(F)F)N(C)C(=O)Cc1c(F)ccc(F)c1F (stereo not drawn): 35
- CC(C)C(c1ccc(C(F)(F)F)nc1)N(C)C(=O)Cc1ccccc1 (racemic): 10
- CC(C)C(c1cnccc1C(F)(F)F)N(C)C(=O)Cc1ccc(F)cc1F (stereo not drawn): 10
- CC(C)C(c1cnccc1C(F)(F)F)N(C)C(=O)Cc1ccc(-c2ccccc2)cc1 (stereo not drawn): 0
- CC(C)C(c1cnccc1Cl)N(C)C(=O)Cc1ccccc1 (stereo not drawn): 0
- COC(=O)N(C)C(c1cnccc1C(F)(F)F)c1cccc2ccccc12 (stereo not drawn): 10
- CC(C)C(c1cnccc1C(F)(F)F)N(C)C(=O)Cc1ccc(Br)cc1 (stereo not drawn): 10
- CC(C)C(c1cnccc1C(F)(F)F)N(C)C(=O)Cc1csc2ccccc12 (stereo not drawn): 30

Input line: # lookup: Growth controlling degree (%) Rice of CC(C)C(NC(=O)Cc1c(F)cccc1F)c1cnccc1C(F)(F)F (stereo not drawn)
Output line: 20

###

# Test system: velvetleaf
# assay overview: Test Example 2: soil surface treatment, upland pot test
# Type: in vivo, Abutilon theophrasti MEDIC.
# study conditions: active ingredient 500 g/ha, observed 20th to 28th day
Item-by-item account of Growth controlling degree (%) Velvetleaf
// units = %; emit number, no label

Answered examples (3):
- COc1ccc(CC(=O)N(C)C(c2cnccc2C(F)(F)F)C(C)C)cc1 (centres unmarked): 0
- CCN(C(=O)Cc1cccc(C(F)(F)F)c1)C(c1cnccc1C(F)(F)F)C(C)C (centres unmarked): 70
- CC(C)C(c1cnccc1C(F)(F)F)N(C)C(=O)C=Cc1ccc(F)cc1 (centres unmarked): 10

Input line: Growth controlling degree (%) Velvetleaf for CC(C)C(c1cnccc1C(F)(F)F)N(C)C(=O)Cc1cc(F)ccc1F (centres unmarked) ?
Output line: 80

Input line: Look at this molecule and give its reported Growth controlling degree (%) Velvetleaf. CC(C)C(c1cnccc1C(F)(F)F)N(C)C(=O)Cc1ccc(C(F)(F)F)c(F)c1 (centres unmarked)
Output line: 50

Input line: Which Growth controlling degree (%) Velvetleaf is listed for CC(C)C(c1cnccc1C(F)(F)F)N(C)C(=O)COc1ccccc1F (centres unmarked) ?
Output line: 30

Input line: Report Growth controlling degree (%) Velvetleaf for CC(C)C(c1cnccc1C(F)(F)F)N(C)C(=O)Cc1ccc(Cl)c(Cl)c1 (centres unmarked) please.
Output line: 50

Input line: Give the measured Growth controlling degree (%) Velvetleaf of CCCC(=O)N(C)C(c1cnccc1C(F)(F)F)C(C)C (centres unmarked) .
Output line: 90

###

# Test system: soybean
# assay overview: Test Example 1: foliage treatment, upland pot test
# Format: in vivo, Glycine max Merr.
# study conditions: crop, active ingredient 500 g/ha, observed 18th to 23rd day, 0 = non-treated, 100 = complete kill
Below: a set of entries, each annotated with reported Growth controlling degree (%) Soybean.
State just the number; it will be interpreted in %.

• CC(C)C(c1cnccc1C(F)(F)F)N(C)C(=O)Cc1ccc(C#N)cc1 (racemic) = 70
• CC(C)C(c1cnccc1C(F)(F)F)N(C)C(=O)C=Cc1ccc(C(F)(F)F)cc1 (stereo not drawn) = 70

Input line: Fill in the blank: the reported Growth controlling degree (%) Soybean of Cc1ccccc1CC(=O)N(C)C(c1cnccc1C(F)(F)F)C(C)C (stereo not drawn) is ____.
Output line: 70
